target: Ribosyldihydronicotinamide dehydrogenase [quinone] (Homo sapiens)
Sequence (P16083 whole entry): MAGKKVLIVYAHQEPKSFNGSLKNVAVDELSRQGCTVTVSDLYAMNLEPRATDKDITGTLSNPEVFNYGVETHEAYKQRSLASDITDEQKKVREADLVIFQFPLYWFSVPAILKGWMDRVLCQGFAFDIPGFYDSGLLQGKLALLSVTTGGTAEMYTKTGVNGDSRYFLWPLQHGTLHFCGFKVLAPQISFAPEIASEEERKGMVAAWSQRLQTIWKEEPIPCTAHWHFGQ

{"columns": ["molecular_string", "IC50, nM"],
 "data": [
  ["COc1cc(-c2ccc3cc(N)ccc3c2)cc(OC)c1OC", 69]
]}
